# Test system: HCC-2998 colon
# Test Description: NCI tumour cell line growth inhibition, 48 h

# Compound, TGI
rows = [
    ("CN1C(=O)[C@@H]2[C@@H]3c4ccccc4N[C@@H]3c3[nH]c4ccccc4c3[C@@H]2C1=O", "40.3 µM"),
    ("O=C(NCCC1CN(S(=O)(=O)C(F)(F)F)c2ccccc21)OCc1ccccc1 (stereo not given)", "> 100 µM"),
    ("C1C[S][Ge]2([S]CCS1)[S]CCSCC[S]2", "> 100 µM"),
    ("O=C1c2ccccc2C(=O)c2c(NCC3CO3)cccc21 (stereo not given)", "> 100 µM"),
    ("CNC(=O)c1cc(Oc2ccc3nc(NC(=O)Nc4cc(C(F)(F)F)cc(C(F)(F)F)c4)sc3c2)ccn1", "3.23 µM"),
    ("Cc1nc2cc(Nc3nc(Nc4ccc(F)cc4)nc(N4CCCC4)n3)ccc2n1Cc1ccccc1", "3.73 µM"),
    ("CN(CC1NCCCC1O)C12CC3CC(CC(C3)C1)C2 (stereo not given)", "> 100 µM"),
    ("CCSc1[nH]c(NC(=NC(C)C)NC(=O)c2ccccc2)c(C(N)=O)c1C(N)=O", "> 10 µM"),
    ("O=C1C(=Cc2ccc([N+](=O)[O-])o2)C(=O)N(CCc2ccccc2)S(=O)(=O)N1CCc1ccccc1", "> 100 µM"),
    ("COc1cc(=O)oc(/C=C/CO)c1C", "> 100 µM"),
]

Data origin, for the record: PubChem BioAssay (NCI)
